biological target: T1, cynomolgus monkey Protein S (cynomolgus monkey); test: BLI Octet; antibody on anti-human Fc probe; Protein S 7.81-500 nM; 4 mM CaCl2
T1 construct: also called cyno Protein S
QUANTITY: koff (s⁻¹)
Only the number, expressed in s⁻¹, is required.

Antibody 28 (antibody, V domains shown) VH: QVQLQQSGTELVRPGTSVKMSCKAAGYTFTNHWIGWVKQRPGHGLEWIGDIYPGGGYTNYNEKFKGKASLTADTSSTTAYMQLSSLTSEDSAIYYCSRFGDQNWAWFAYWGQGTLVTVSA VL: DIQMNQSPSSLSASLGDTITITCRASQNIHMWLSWYQQKPGNIPKLLIFKTSNLHTGVPSRFSGSGSGTDFTLTISSLQPEDIATYYCLQGQSYPFTFGGGTKLEIK
0.00106

*Q* Fill in: koff of Antibody 39 (antibody, V domains shown, Same variable regions as Antibody 40) VH: EVQLVESGGGLVQPGGSLRLSCAASGFTFSSYSMNWVRQAPGKGLEWVAYISSSTRTIFYADSVKGRFTISRDNAKNSLYLQMNSLRDEDTAFYYCARERSAFDYWGQGTLVTVSS VL: SYVLTQPPSVSVAPGQTARITCGGDNIGGKSVHWYQQKPGQAPVMVVYDDSDRPSGIPERFAGSNSGNTATLAISRVEAGDEADYYCQVWEITSDHPAFGGGTRLTVL is ___
*A* 8.02e-05
